FYI, the data here is from patent US20260209348A1.

- target: recombinant human ROR2 D354E (human, UniProt Q01974 34-403)
- Sequence (Q01974 34-403 D354E limits assumed): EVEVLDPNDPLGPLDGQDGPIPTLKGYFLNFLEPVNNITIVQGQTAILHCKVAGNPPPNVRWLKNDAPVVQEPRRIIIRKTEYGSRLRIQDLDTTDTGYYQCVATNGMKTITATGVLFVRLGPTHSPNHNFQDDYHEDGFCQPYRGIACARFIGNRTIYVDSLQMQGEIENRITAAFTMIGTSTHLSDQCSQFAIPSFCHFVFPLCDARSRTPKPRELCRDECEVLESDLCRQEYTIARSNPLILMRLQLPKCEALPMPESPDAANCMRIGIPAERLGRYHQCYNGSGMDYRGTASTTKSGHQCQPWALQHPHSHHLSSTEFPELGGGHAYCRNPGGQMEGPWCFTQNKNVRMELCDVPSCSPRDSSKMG
- assay_info: dot blot on nylon membrane, anti-human IgG-HRP
readout: binding result

h6E6-070 (antibody, human IgG1, V domains shown, human IgG1; Alexa647 conjugate in flow cytometry; also called clone 70) VH: EVQLVESGGGLVKPGGSLRLSCAASGFTFSQYGHSWVRQAPGKGLEWVSTISSGGGYTHYAHSVKGRFTISRDNAKNSLYLQMNSLRAEDTAVYYCARHPRDFSYANDYWGQGTTVTVSS VL: EIVMTQSPATLSVSPGERATLSCRASQDVGHYLAWYQQKPGQAPRLLIYWASTRATGIPARFSGSGSGTEFTLTISSLQSEDFAVYYCQQYNIYPWTFGQGTKVEIK | no binding
h6E6-068 (antibody, human IgG1, V domains shown, human IgG1; also called clone 68) VH: EVQLVESGGGLVKPGGSLRLSCAASGFTFSSYGISWVRQAPGKGLEWVSTISSGGGYTHYAHSVKGRFTISRDNAKNSLYLQMNSLRAEDTAVYYCARHPRDFSYALDYWGQGTTVTVSS VL: EIVMTQSPATLSVSPGERATLSCKASQDVGHYLAWYQQKPGQAPRLLIYWASTRATGIPARFSGSGSGTEFTLTISSLQSEDFAVYYCQQYNIYPWTFGQGTKVEIK | no binding
